Catalogue of residual activity values
experimental_target: Serine/threonine-protein kinase ULK3 (Homo sapiens)
assay_conditions: at 10 µM
measured_property: residual activity (%)

>>> readout_value("CO[C@H]1C[C@@H]2CC[C@@H](C)[C@@](O)(O2)C(=O)C(=O)N2CCCC[C@H]2C(=O)O[C@H]([C@H](C)C[C@@H]2CC[C@@H](O)[C@H](OC)C2)CC(=O)[C@H](C)/C=C(\\C)[C@@H](O)[C@@H](OC)C(=O)[C@H](C)C[C@H](C)/C=C/C=C/C=C/1C")
94
>>> readout_value("CO[C@@H]1[C@H](N(C)C(=O)c2ccccc2)C[C@H]2O[C@]1(C)n1c3ccccc3c3c4c(c5c6ccccc6n2c5c31)C(=O)NC4")
5
>>> readout_value("Cc1cc(Nc2nc(-c3ccccc3)nc3ccccc23)n[nH]1")
4
>>> readout_value("O=C1Nc2ccccc2/C1=C1/Nc2ccccc2/C1=N\\OCCC(O)CO (stereo not drawn)")
5
>>> readout_value("CC(C)n1cnc2/c(=N/c3cccc(Cl)c3)nc(NCCO)[nH]c21")
11
>>> readout_value("Oc1n[nH]c2nnc(-c3c(-c4ccccc4)nn4ccccc34)cc12")
95
>>> readout_value("Nc1ccc2ncnc(NCCc3ccc(Oc4ccccc4)cc3)c2c1")
87
>>> readout_value("CN(C)c1ccc(/C=C2\\C(=O)Nc3ccccc32)cc1")
49

* * *

Each entry below lists one item and its recorded residual activity value.
experimental_target: Calcium/calmodulin-dependent protein kinase type II subunit delta (Homo sapiens) (UniProt Q13557)
Sequence (Q13557 whole entry): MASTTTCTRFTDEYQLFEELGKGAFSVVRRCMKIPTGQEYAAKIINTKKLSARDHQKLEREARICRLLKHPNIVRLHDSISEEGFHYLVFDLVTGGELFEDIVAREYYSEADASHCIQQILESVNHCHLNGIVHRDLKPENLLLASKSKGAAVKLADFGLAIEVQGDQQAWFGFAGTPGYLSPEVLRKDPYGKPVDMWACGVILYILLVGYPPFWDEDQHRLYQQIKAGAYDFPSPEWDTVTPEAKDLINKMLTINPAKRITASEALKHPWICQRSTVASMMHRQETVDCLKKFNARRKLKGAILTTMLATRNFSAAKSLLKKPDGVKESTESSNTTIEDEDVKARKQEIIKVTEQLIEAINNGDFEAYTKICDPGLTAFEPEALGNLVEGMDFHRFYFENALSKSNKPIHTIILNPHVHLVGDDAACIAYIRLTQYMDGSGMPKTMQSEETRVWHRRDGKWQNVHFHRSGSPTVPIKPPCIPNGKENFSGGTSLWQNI
assay_conditions: at 1 µM
measured_property: residual activity (%)

>>> readout_value("CO[C@H]1C[C@@H]2CC[C@@H](C)[C@@](O)(O2)C(=O)C(=O)N2CCCC[C@H]2C(=O)O[C@H]([C@H](C)C[C@@H]2CC[C@@H](O)[C@H](OC)C2)CC(=O)[C@H](C)/C=C(\\C)[C@@H](O)[C@@H](OC)C(=O)[C@H](C)C[C@H](C)/C=C/C=C/C=C/1C")
109
>>> readout_value("c1ccc(-c2n[nH]c3c2oc2ccccc23)cc1")
79
>>> readout_value("C[C@@H](N)[C@H]1CC[C@H](C(=O)Nc2ccncc2)CC1")
107
>>> readout_value("Nc1cccc(-c2cc3c(Oc4cccc(O)c4)ncnc3[nH]2)c1")
42
>>> readout_value("Ic1cccc(CSc2nnc(-c3ccncc3)o2)c1")
73
>>> readout_value("O=c1c2ccccc2[nH]c(=S)n1CCN1CCC(=C(c2ccc(F)cc2)c2ccc(F)cc2)CC1")
105
>>> readout_value("COc1cc2ncnc(N3CCN(C(=O)Nc4ccc(Oc5ccccc5)cc4)CC3)c2cc1OC")
104
>>> readout_value("CC(=O)c1ccc(N2CCOCC2)cc1O")
102
>>> readout_value("Nc1ccc2ncnc(NCCc3ccc(Oc4ccccc4)cc3)c2c1")
31
>>> readout_value("Cc1cncc2cccc(S(=O)(=O)N3CCCN(C(=O)CN)C[C@H]3C)c12")
98
>>> readout_value("COc1cc2ncnc(Nc3ccc(Oc4ccccc4)cc3)c2cc1OC")
105
>>> readout_value("O=C1c2ccccc2-[n+]2ccc3c([nH]c4ccccc43)c21")
95
>>> readout_value("O=C1Nc2ccccc2/C1=C1/Nc2ccccc2/C1=N\\OCCC(O)CO (stereo unspecified)")
6
>>> readout_value("CN(C)CCCn1cc(C2=C(c3c[nH]c4ccccc34)C(=O)NC2=O)c2ccccc21")
16
>>> readout_value("Cc1ccc(NC2=CC(=O)c3sc(C)nc3C2=O)cc1")
95
>>> readout_value("COc1ccc(S(=O)(=O)N(CCO)c2ccccc2CN(C)C/C=C/c2ccc(Cl)cc2)cc1")
101
